Observed Ki for human H3R (Homo sapiens), reported per entry below.
quantity name: Ki (nM)

(a) CCN1CCC(n2ccc3cc(C(=O)N4CCN(C5CCCC5)CC4)ccc32)C1 (centres unmarked) [Example 6]
(b) O=C(c1ccc2c(ccn2CC2CCCN(Cc3ccccc3)C2)c1)N1CCN(C2CCCC2)CC1 (centres unmarked) [Example 11]
Request: Sorting by Ki in descending order, would a or b appear first? // caller expects the label of the chosen entry
Response: b
(b: 12.1 nM, a: 5.9 nM)
